Source listed as paper PMC4369446.

Biological target: T1, SLC1A1 peptide on HLA-A*02:01 (human)
T1 peptide: VLTGLAIHSI
Assay: cytokine release
observation-type: binding result

Use these answered entries as a reference point.
INSERT INTO measurements (binder, test_value) VALUES
  ('SIG35α / TRBV27 Cl.794 (TCR) alpha TRAV12-2 J35 CDR3: CAVSIGFGNVL beta TRBV27 TRBJ1-2 CDR3: CASSLLGDYGYTF', 'no recognition'),
  ('SIG35α / TRBV27 Cl.758 (TCR) alpha TRAV12-2 J35 CDR3: CAVSIGFGNVL beta TRBV27 TRBJ2-2 CDR3: CASSPRLAGDGELFF', 'no recognition'),
  ('SIG35α / TRBV27 Cl.413 (TCR) alpha TRAV12-2 J35 CDR3: CAVSIGFGNVL beta TRBV27 TRBJ1-4 CDR3: CASSVFGGDMGEKLFF', 'no recognition'),
  ('SIG35α / TRBV27 Cl.1086 (TCR) alpha TRAV12-2 J35 CDR3: CAVSIGFGNVL beta TRBV27 TRBJ1-2 CDR3: CASSLHGPGGYTF', 'no recognition'),
  ('SIG35α / TRBV27 Cl.1606 (TCR) alpha TRAV12-2 J35 CDR3: CAVSIGFGNVL beta TRBV27 TRBJ2-7 CDR3: CASSLLGSYEQYF', 'recognises'),
  ('SIG35α / TRBV27 Cl.1574 (TCR) alpha TRAV12-2 J35 CDR3: CAVSIGFGNVL beta TRBV27 TRBJ1-1 CDR3: CASSPWERINTEAFF', 'recognises');

Data request, read-out binding result, for SIG35α / TRBV27 Cl.788 (TCR) alpha TRAV12-2 J35 CDR3: CAVSIGFGNVL beta TRBV27 TRBJ2-7 CDR3: CASGPSYEQYF
no recognition
